These data points were gathered from patent US9216999B2.

target: JAK1 (Homo sapiens (Human), UniProt P23458); test: Enzyme assay (Assay Example^a 1), JAK1; format: biochemical; settings: ATP 100 μM
Response field label takes 1 when IC50 is strictly below 0.01 µM and 0 in all other cases.

1) c1cc2c(ncn3nnc([C@H]4CC[C@H](CNC56CC(C5)C6)CC4)c23)[nH]1 : 0

INPUT: Hi there! Is IC50 for `CN(C)C[C@H]1CC[C@H](c2nnn3cnc4[nH]ccc4c23)CC1` below 0.01 µM, do you know?
OUTPUT: 1

INPUT: Hi there! Is IC50 for `CC(C)NC[C@H]1CC[C@H](c2nnn3cnc4[nH]ccc4c23)CC1` below 0.01 µM, do you know?
OUTPUT: 1

INPUT: Hi there! Is IC50 for `NC(=O)C1CCN(C[C@H]2CC[C@H](c3nnn4cnc5[nH]ccc5c34)CC2)CC1` below 0.01 µM, do you know?
OUTPUT: 0

INPUT: Hi there! Is IC50 for O[C@H]1CCCC[C@H]1CNC[C@H]1CC[C@H](c2nnn3cnc4[nH]ccc4c23)CC1 (relative stereo) below 0.01 µM, do you know?
OUTPUT: 0

INPUT: Hi there! Is IC50 for `FC(F)(F)CCNC[C@H]1CC[C@H](c2nnn3cnc4[nH]ccc4c23)CC1` below 0.01 µM, do you know?
OUTPUT: 0

INPUT: Hi there! Is IC50 for `O=C([C@H]1CC[C@H](c2nnn3cnc4[nH]ccc4c23)CC1)N1CC[C@H](O)C1` below 0.01 µM, do you know?
OUTPUT: 0

INPUT: Hi there! Is IC50 for `CC1(NC[C@H]2CC[C@H](c3nnn4cnc5[nH]ccc5c34)CC2)CC1` below 0.01 µM, do you know?
OUTPUT: 1

INPUT: Hi there! Is IC50 for `FC(F)(F)C(NC[C@H]1CC[C@H](c2nnn3cnc4[nH]ccc4c23)CC1)C(F)(F)F` below 0.01 µM, do you know?
OUTPUT: 1

INPUT: Hi there! Is IC50 for `CCN(C)C1CN(C[C@H]2CC[C@H](c3nnn4cnc5[nH]ccc5c34)CC2)C1` below 0.01 µM, do you know?
OUTPUT: 0

INPUT: Hi there! Is IC50 for `Fc1ccc(C2(NC[C@H]3CC[C@H](c4nnn5cnc6[nH]ccc6c45)CC3)COC2)cc1` below 0.01 µM, do you know?
OUTPUT: 1

INPUT: Hi there! Is IC50 for COc1ccc(C(O)(CN[C@H]2CC[C@H](c3nnn4cnc5[nH]ccc5c34)CC2)C(F)(F)F)cc1OC (stereo partly shown) [390b] below 0.01 µM, do you know?
OUTPUT: 1

---

molecular target: JAK2 (Homo sapiens (Human), UniProt O60674); assay: Enzyme assay (Assay Example^a 1), JAK2; assay type: biochemical; details: ATP 100 μM
Measured IC50 of individual entries
# number only, unit µM dropped from output

// solved cases for IC50 follow
1. OCCNC[C@H]1CC[C@H](c2nnn3cnc4[nH]ccc4c23)CC1 : 0.053
2. Clc1ccc(CN2CCC(c3nnn4cnc5[nH]ccc5c34)CC2)cn1 : 0.013

INPUT: Param item = `FC1(F)CN(C[C@H]2CC[C@H](c3nnn4cnc5[nH]ccc5c34)CC2)C1` ; retrieve measured IC50.
OUTPUT: 0.052

INPUT: Param item = `CC(=O)N[C@@H]1CCN(C[C@H]2CC[C@H](c3nnn4cnc5[nH]ccc5c34)CC2)C1` ; retrieve measured IC50.
OUTPUT: 0.057

INPUT: Param item = N#CCCN(CCC#N)C1CCC(c2nnn3cnc4[nH]ccc4c23)CC1 (centres unmarked) ; retrieve measured IC50.
OUTPUT: 0.0025

INPUT: Param item = `FC1(F)Oc2ccc(NC[C@H]3CC[C@H](c4nnn5cnc6[nH]ccc6c45)CC3)cc2O1` ; retrieve measured IC50.
OUTPUT: 0.065

INPUT: Param item = CSc1ccc(C(O)(CN[C@H]2CC[C@H](c3nnn4cnc5[nH]ccc5c34)CC2)C(F)(F)F)cc1 (some centres unmarked) [386b] ; retrieve measured IC50.
OUTPUT: 0.027

INPUT: Param item = `c1cc(CN2CCC(c3nnn4cnc5[nH]ccc5c34)CC2)ccn1` ; retrieve measured IC50.
OUTPUT: 0.035
